The values you see were collected from patent US6455507B1.

value kind: melting point

| compound | value kind | observed result |
| --- | --- | --- |
| OC[C@@H]1OC[C@H](n2c(NC3CC3)nc3cc(Cl)c(Cl)cc32)C[C@H]1O | melting point | 98 to 99 °C |
| O[C@@H]1[C@H](O)[C@H](O)CO[C@H]1n1c(Br)nc2cc(Cl)c(Cl)cc21 | melting point | 175 °C (dec.) |
| O[C@@H]1CCCC[C@H]1n1c(NC2CC2)nc2cc(Cl)c(Cl)cc21 (racemic) | melting point | 149 to 151 °C |
| OC[C@H]1OC[C@@H](n2c(Br)nc3cc(Cl)c(Cl)cc32)[C@H](O)[C@@H]1O | melting point | 207 to 209 °C |
| CC(=O)O[C@@H]1[C@H](OC(C)=O)[C@H](OC(C)=O)CO[C@H]1n1c(Br)nc2cc(Cl)c(Cl)cc21 | melting point | 100 to 110 °C |
| OC[C@H]1OC[C@@H](n2c(NC3CC3)nc3cc(Cl)c(Cl)cc32)[C@H](O)[C@@H]1O | melting point | 244 °C (dec.) |
| OC[C@@H]1OC[C@H](n2c(Br)nc3cc(Cl)c(Cl)cc32)[C@@H](O)[C@H]1O | melting point | 207 to 208 °C |
| Cc1cc2nc(Br)n([C@@H]3OC[C@@H](O)[C@@H](O)[C@H]3O)c2cc1Cl | melting point | 170 to 175 °C (dec.) |
| OC[C@@H]1OC[C@H](n2c(NC3CC3)nc3cc(Cl)c(Cl)cc32)[C@@H](O)[C@H]1O | melting point | 164 °C |
| O[C@@H]1CCCC[C@H]1n1c(Br)nc2cc(Cl)c(Cl)cc21 (racemic) | melting point | 201 to 202 °C |
| O[C@H]1[C@H](O)[C@@H](n2c(Br)nc3cc(Cl)c(Cl)cc32)OC[C@@H]1O | melting point | 164 to 165 °C |
| CC(=O)O[C@@H]1[C@H](OC(C)=O)[C@@H](n2c(Br)nc3cc(Cl)c(Cl)cc32)OC[C@@H]1OC(C)=O | melting point | 110 °C |
